test: xn = mol fraction of the nth substance listed, in the solute-free solvent; conditions: 308.15 K; x2 = 0.3

compound | solubility (g/100 g solution)
Cc1ncc(CO)c(CO)c1O.Cl + O + CC#N | 1.47
Cc1c(Br)c(=O)n(C2CCCC2)c2nc(Cl)ncc12 + CCOC(C)=O + CCO | 0.775
Cc1ncc(CO)c(CO)c1O.Cl + O + CCCO | 2.29

###

assay: xn = mol fraction of the nth substance listed, in the solute-free solvent; conditions: 293.15 K; x2 = 0.4
measuredProperty: solubility (g/100 g solution)

compound | readoutValue
CCOC(=O)OC1=C(c2cc(C)ccc2C)C(=O)NC12CCC(OC)CC2 (stereo unspecified) + CCO + O | 2.96
Cl.NC(Cc1ccccc1)C(=O)OCc1ccccc1 (stereo unspecified) + CO + CC(C)=O | 2.75
CCOc1ccccc1C(N)=O + CC(C)O + CC#N | 5.26
N#CCNC(=O)c1cnccc1C(F)(F)F + CCOC(C)=O + CCO | 7.58
CCOc1ccccc1C(N)=O + CO + CC#N | 7.41
Cc1c(Br)c(=O)n(C2CCCC2)c2nc(Cl)ncc12 + CC1=CC(=O)CC(C)(C)C1 + CC(C)O | 0.752
Cc1ncc(CO)c(CO)c1O.Cl + O + CCCO | 2.65
CCOC(=O)OC1=C(c2cc(C)ccc2C)C(=O)NC12CCC(OC)CC2 (stereo unspecified) + CO + O | 0.613
CCOc1ccccc1C(N)=O + CCO + CC#N | 6.13
Cl.N=C(N)NC(=N)N1CCOCC1 + O + CC(C)O | 5.73
Cc1ncc(CO)c(CO)c1O.Cl + O + CC(C)O | 1.47

Provenance of the data: the CheMixHub drug solubility set
